# System: tested cancer cell lines (MDA-MB-231, A2780)
# procedure_details: Antiproliferative activity, text summary over tested cancer cell lines
# Format: cell-based
# details: 72 h, read-out: IC50 range in the tested cancer cell lines
quantity_name: IC50

Just so you know, measured IC50 for O=C(O)c1ccc(-n2nc(-c3ccccc3O)nc2-c2ccccc2O)cc1 [DFX, deferasirox] came out at 10 to 20 µM
